Every entry's value here was drawn from patent US20250145684A1.

Measured peptide exchange yield accompanies every entry in the list below.
target: T1, HLA-B*08:01 (human); experiment: UV peptide exchange ELISA
T1 construct: MHC monomer first loaded with a UV-sensitive peptide that is cleaved by UV light and exchanged for the test peptide
endpoint: peptide exchange yield

binder: MGKFKQCF [MGKFKQCF (SEQ ID NO: 10)]
result: 50 to 75%
--
binder: HVQDFTAF [HVQDFTAF (SEQ ID NO: 168)]
result: 20 to 50%
--
binder: AQKAELIAL [AQKAELIAL (SEQ ID NO: 222)]
result: 20 to 50%
--
binder: PYEKVSRL [PYEKVSRL (SEQ ID NO: 172)]
result: 20 to 50%
--
binder: DLRNKIIA [DLRNKIIA (SEQ ID NO: 159)]
result: 20 to 50%
--
binder: TASAMQHVL [TASAMQHVL (SEQ ID NO: 201)]
result: 50 to 75%
--
binder: LMKEKIQEM [LMKEKIQEM (SEQ ID NO: 93)]
result: 50 to 75%
--
binder: MYRKEQYL [MYRKEQYL (SEQ ID NO: 81)]
result: 20 to 50%
--
binder: DAKSKIEQI [DAKSKIEQI (SEQ ID NO: 39)]
result: 20 to 50%
--
binder: DLQKKAQAL [DLQKKAQAL (SEQ ID NO: 30)]
result: 20 to 50%
--
binder: IMKKIRESY [IMKKIRESY (SEQ ID NO: 102)]
result: 50 to 75%
--
binder: DVNPVSLQL [DVNPVSLQL (SEQ ID NO: 148)]
result: 20 to 50%
--
binder: HPRLKVNLL [HPRLKVNLL (SEQ ID NO: 76)]
result: 50 to 75%
--
binder: DVIIKGNGL [DVIIKGNGL (SEQ ID NO: 158)]
result: 20 to 50%
--
binder: DRHLTNRVL [DRHLTNRVL (SEQ ID NO: 151)]
result: 20 to 50%
--
binder: MSPLLRSI [MSPLLRSI (SEQ ID NO: 204)]
result: 20 to 50%
--
binder: LSLVRKAL [LSLVRKAL (SEQ ID NO: 18)]
result: 50 to 75%
